# Test system: TK-10
# Method Notes: NCI tumour cell line growth inhibition, 48 h
Activity calls are given as the source filed them. Rule as the data show it: active = GI50 up to about 1.1 µM and inactive = higher.
Possible outcomes: true (1) = active, false (0) = inactive

                                   compound      group
0  Cc1cc2c(=O)cc(-c3ccc(F)cc3)oc2c(C(=O)O)c1C  false (0)
1  CCOc1cc(NC(C)=O)ccc1C(=O)NN1C(=O)C(Cl)C1c1ccco1 (stereo not given)  false (0)
2  CCCCCN1C(=O)C(Cc2ccccc2)N=C(c2ccc(O)cc2)c2cc(Cl)ccc21 (stereo not given)  false (0)
3  c1cc2c(cc1[C@@H]1OC[C@@H]3[C@H]1CO[C@H]3c1ccc3c(c1)OCO3)OCO2  false (0)
4                CN(N=O)C(=O)NNC(=O)N(C)N=O  false (0)
5  Cc1nc2ccc(Br)cc2c(=O)n1-c1nnc(C(C)(C)C)s1  false (0)
6          CC(=O)c1cc2c(s1)C(=O)c1sccc1C2=O   true (1)
7  O=c1[nH]c(=O)n([C@H]2C[C@H](O)[C@@H](CO)O2)cc1Br  false (0)
8   O=C(C(Cl)=C(Nc1ccccc1)Nc1ccccc1)C(Cl)Cl  false (0)
9  CC(C)(C)NN=C1C(C)(C)C(=NNC(C)(C)C)C1(C)C  false (0)

###

This section presents molecules with their documented GI50 values.
# System: 786-0
# Method Notes: NCI tumour cell line growth inhibition, 48 h
Activity calls are given as the source filed them. Cut-off read from the data, not from the text of the source: active = GI50 up to about 1.1 µM and inactive = higher.
Measurement Kind: GI50

In [3]: df
Out[3]:
                                    molecule               result
 0  Cc1cccc(Nc2nc3ccccc3nc2NS(=O)(=O)c2ccccc2)c1   39.4 µM (inactive)
 1  COC(=O)Nc1nc2cc(NS(=O)(=O)c3ccc(F)cc3)ccc2[nH]1     40 µM (inactive)
 2  CCCc1cc(O)c2c(C)c3[nH]c4ccc(Cl)cc4c3c(C)c2n1   1.61 µM (inactive)
 3        Cc1nnc(N)nc1/C=C/c1c(O)ccc2ccccc12   32.4 µM (inactive)
 4  Cc1cccc(C)c1NC(=O)C(=O)Nn1c(NN)nc2ccccc2c1=O  > 100 µM (inactive)
 5  CCOc1cc(NC(C)=O)ccc1C(=O)NN1C(=O)C(Cl)C1c1ccco1 (stereo unspecified)   16.1 µM (inactive)
 6  CC1=CC(C)(c2c[nH]c3ccccc23)CC(C)(C)c2c1[nH]c1ccccc21 (stereo unspecified)   13.8 µM (inactive)
 7  COc1cc2c(c(OC)c1OC)C(=O)[C@@H]1[C@H]2N1C(=O)NCCCl  > 100 µM (inactive)
 8  Cc1cc2nc3c(C#N)c(-c4ccccc4)cc(Nc4ccc(F)cc4)n3c2cc1C   8.49 µM (inactive)
 9  CC1(C)CC2C(/C1=N/O)C1(C)CCCC2(C)C1O (stereo unspecified)  > 100 µM (inactive)
10  Cc1nc(C)c(C(=O)NNC(N)=S)cc1C(=O)NNC(N)=S  > 100 µM (inactive)
11    COC(=O)c1ccc(NC(=O)O/N=C(\Cl)C(C)C)cc1   2.03 µM (inactive)
12  C[C@]12CC/C(=N\OC(=O)Nc3ccccc3)C=C1CC[C@@H]1C2CC[C@@]2(C)C1CC[C@@H]2OC(=O)Nc1ccccc1 (stereo partly specified)  > 100 µM (inactive)
13  O=C(O)CC1OCC=C2CN3CCC45C6=CC(=O)C(O)=C([N+](=O)[O-])C6=NC4C1C2CC35 (stereo unspecified)  > 100 µM (inactive)
14  CCOC(=O)C1Oc2ccc([N+](=O)[O-])c3c2C1(O)CCC3 (stereo unspecified)  > 100 µM (inactive)
15     CC1=NN=C(C)C1/N=N/c1ccc2[nH]c(C)nc2c1   34.4 µM (inactive)
16  O=C1c2c(Cl)c(Cl)c(Cl)c(Cl)c2C(=O)N1CCN(c1c(Cl)ssc1=O)c1c(Cl)ssc1=O   18.2 µM (inactive)
17                 CCNc1ccc2c(c1)Cc1ccccc1-2  > 100 µM (inactive)
18  O=c1[nH]c(=O)n(COCc2ccccc2)c2ccc(Br)cc12  > 100 µM (inactive)
19  O=[N+]([O-])/C(Cl)=C/C(=C1/Nc2ccccc2O1)[N+](=O)[O-]   31.8 µM (inactive)
20          CC1(C)O[C@@H](CCl)C[C@@H](C#N)O1  > 100 µM (inactive)

###

# Test system: T47D
# Method Notes: NCI tumour cell line growth inhibition, 48 h
The source made the active and inactive calls. Cut-off read from the data, not from the text of the source: active = GI50 up to about 1.1 µM and inactive = higher.
Possible outcomes: active, inactive

Compound	Group
O=C(O)C1=C(C(=O)O)N(c2ccncc2)C(c2ccco2)=CC1c1ccccc1[N+](=O)[O-] (centres undefined)	inactive
Cc1cc(O)c(O)c(Oc2cc(C)cc(O)c2O)c1	inactive
O=C1c2ccccc2-c2nnc(-c3ccc([N+](=O)[O-])cc3)cc21	inactive
CNC(=O)N(CCC#N)CCN(CCN(C(=O)NC)c1ccccc1)C(=O)NC	inactive
COc1ccc(C(=O)/C=C/c2ccc(OCC#N)cc2)cc1	inactive
COc1ccc(-c2cc(=O)c3c(OC)c(OC)c(OC)cc3o2)cc1	inactive
CCOC(=O)/C(C(=O)Nc1ccc(Cl)cc1)=C(/N)N1CCCC1	inactive
O=C1c2c(Cl)c(Cl)c(Cl)c(Cl)c2C(=O)N1CCN(c1c(Cl)ssc1=O)c1c(Cl)ssc1=O	inactive
C(=N\NC1=NCCCN1)/c1ccc(-c2cn3cc(/C=N/NC4=NCCCN4)ccc3n2)cc1	inactive
O=C(Nc1ccc(Cl)cc1)c1cc(S(=O)(=O)Nc2n[nH]c(Nc3ccc4ccccc4c3)n2)c(SSc2cc(Cl)c(C(=O)Nc3ccc(Cl)cc3)cc2S(=O)(=O)Nc2n[nH]c(Nc3ccc4ccccc4c3)n2)cc1Cl	inactive
CNC(=O)C1CCCN1C(=O)C(Cc1c[nH]cn1)NC(=O)C1CCC(=O)N1 (centres undefined)	inactive
N#Cc1c(N2CCN(c3ccc([N+](=O)[O-])cc3)CC2)[n+]([O-])c2ccc(Cl)cc2[n+]1[O-]	active
Cc1c(Cl)c(=O)oc2cc(OCC(O)COC(C)C)ccc12 (centres undefined)	inactive
CCOC(=O)CCC(C(=O)OCC)n1nnc2ccc(Nc3c(C)[n+]([O-])c4cc(Cl)ccc4[n+]3[O-])cc21 (centres undefined)	inactive
O=C(O)c1ccc(C(=O)O)c(C(=O)Nc2ccc3c(c2)C(=O)c2ccccc2-3)c1	inactive
Cc1ccc(/C=N/NC2=NCCN2)s1	inactive
CCOC(=O)C(C)(C)Oc1ccc(Cl)cc1 [CLOFIBRATE]	inactive
CC(CCCCNC(=O)OC(C)(C)C)NC(=O)NC(C)CCCCNC(=O)OC(C)(C)C (centres undefined)	inactive
CCO/C=N/C1=C(C#N)SC2=N/C(=C\c3ccccc3)C(=O)N21	inactive
CN1/C(=C/C=C/C=C/C=C2C(=O)c3ccccc3C2=O)C(C)(C)c2ccccc21	inactive
CC(=O)Nc1ccc2c(c1)/C(=C\c1ccc([N+](C)(C)C)cc1)c1ccccc1-2	inactive
COC(=O)C1=C(O)C(C(=O)OC)[C@]2(O)[C@@H](C(=O)OC)[C@H]1C[C@@H](c1ccccc1)[C@@H]2C(=O)OC (some centres undefined)	inactive
CSc1nc(=S)[nH]c2c1c(C)nn2-c1ccccc1	inactive
COc1cccc(C2CC(=O)c3cc(N4CCCC4)ccc3N2)c1 (centres undefined)	inactive
COC(=O)c1c(C)cccc1C1CN=NC12Cc1ccccc1C2=O (centres undefined)	inactive
Clc1ccccc1-c1nnc2c(-c3ccccc3)nc3ccccc3n12	inactive
O=C(NC(Cc1c[nH]c2ccccc12)C(=O)O)/C(=C/c1ccccc1)NC(=O)c1ccccc1 (centres undefined)	inactive
C/C(=N/NC(N)=S)c1ccc[nH]1	inactive
COc1ccc(/C=C2\C[C@H]3[C@@H]4CC=C5C[C@@H](O)CC[C@]5(C)[C@H]4CC[C@]3(C)\C2=N\O)cc1	inactive
O=C(O)c1ccc(Nc2ccnc3cc(Cl)ccc23)cc1O	inactive
O=[N+]([O-])/C(C(Cl)=C(Cl)Cl)=C(\Nc1cccc2cccnc12)Sc1ccccc1	inactive
CC(C)C(Sc1nc(N)nc2nc[nH]c12)C(=O)O (centres undefined)	inactive
Cc1c(-c2ccc(O)cc2)n(CCCCCCNCCOC(=O)NCCCc2ccc(N(CCCl)CCCl)cc2)c2ccc(O)cc12	active
CC1=NN=C(C)C1/N=N/c1ccc2[nH]c(C)nc2c1	inactive
Clc1ccc(Cc2nc3cc4ccccc4cc3[nH]2)cc1Cl	inactive
COc1ccc(C2SCC(=O)N2c2ccc(-n3c(-c4ccccc4)nc4ccccc4c3=O)cc2)cc1 (centres undefined)	inactive
CNC(=O)OCc1nc(SSC(C)(C)C)n(C)c1COC(=O)NC	inactive
CCn1c2c(n(CC)c1=S)-c1c(n(CC)c(=S)n1CC)SSSS2	inactive
CCOC(=O)c1c(N2CCOCC2)[nH]c(=O)c(C(c2ccc(Cl)c([N+](=O)[O-])c2)c2c(O)c(C(=O)OCC)c(N3CCOCC3)[nH]c2=O)c1O	inactive
